CONDITION_DETAILS: pH 6.8
ASSAY_READOUT: aqueous solubility (µg/mL)
Please give a number only; it is taken to be in µg/mL.

Some compounds with recorded aqueous solubility:
>>> quantitative_result("CC(=O)N1c2ccccc2C[C@H]1C(=O)O")
33.6
>>> quantitative_result("O=C(NCCCNC(=O)c1cc2ccccc2[nH]1)c1ccc2c(c1)OCCO2")
40.5
>>> quantitative_result("Cc1ncsc1C(=O)N1CCCCC1c1nc(N(C)C)ncc1-c1cccc(Cl)c1 (stereo unspecified)")
18.2
>>> quantitative_result("CO[C@H]1COCCN(C(=O)c2cccnc2)C1")
34.8
>>> quantitative_result("CC(C)C(=O)Nc1ncn(Cc2cccnc2)n1")
38

q: Supply aqueous solubility value. Item: CCCCCNC(=N)N/N=C/c1c[nH]c2ccc(OC)cc12
a: 30.1

q: Supply aqueous solubility value. Item: CN1C(=O)N(CC(=O)Nc2ccccc2-c2ccccc2)C(=O)C1(C)C
a: 18.7

q: Supply aqueous solubility value. Item: CC(=O)N1CCN(CCNC(=O)N2CCc3sccc3C2)CC1
a: 55.8

q: Supply aqueous solubility value. Item: O=C(NCCCn1ccnc1)N1CCC12CCC2
a: 41.1

q: Supply aqueous solubility value. Item: CCN1C(=O)CC[C@H](C(=O)N2CCc3cc(F)cc(C)c3C2)[C@H]1c1ccncc1
a: 70.2

q: Supply aqueous solubility value. Item: O=C1CC[C@H](O)[C@@H](c2cccc(Cl)c2)N1Cc1ccccc1
a: 118

* * *

A collection of compounds and their measured log10 of intrinsic clearance, rat liver microsomes
// units: mL/min/kg (pre-log); metric: intrinsic clearance, rat liver microsomes; scale: log10

>>> quantitative_result("Cc1sc2nc(CN3CCC(C)CC3)nc(N3CCN(c4cnccn4)CC3)c2c1C")
3.30

q: Supply log10 of intrinsic clearance, rat liver microsomes value. Item: CCN1CCc2c(sc(NC(=O)CS(=O)(=O)c3ccccc3)c2-c2nc3ccccc3s2)C1
a: 2.64

q: Supply log10 of intrinsic clearance, rat liver microsomes value. Item: CC(C)CCN1CCc2nc3cc(C4CC4)nn3c(O)c2C1
a: 1.48

q: Supply log10 of intrinsic clearance, rat liver microsomes value. Item: COc1ccc2c(c1)C=C(CN1CCC(c3cc(-c4cncnc4)cc(C)n3)CC1)CO2
a: 2.30

q: Supply log10 of intrinsic clearance, rat liver microsomes value. Item: c1ccc2nc(NCCn3ccnc3)cnc2c1
a: 2.64

* * *

A collection of molecules and their measured intrinsic clearance, rat liver microsomes
Please give a number only; it is taken to be in mL/min/kg.

Some molecules with recorded intrinsic clearance, rat liver microsomes:
>>> quantitative_result("CCOC(=O)c1cc2ccccc2n1CC(=O)c1ccc(F)cc1")
1890
>>> quantitative_result("Cc1cccnc1Nc1cccc(C2CCCN(CC(=O)Nc3nccs3)C2)n1 (stereo unspecified)")
582
>>> quantitative_result("Cc1nn(C)cc1CNc1nc(-c2cnccn2)nc2sc3c(c12)CCCC3")
2410

q: Supply intrinsic clearance, rat liver microsomes value. Item: O=c1n(Cc2ccccn2)nc2n1-c1cc(Cl)ccc1C1=NCCN12
a: 47.9

q: Supply intrinsic clearance, rat liver microsomes value. Item: Cc1ncc(C(=O)Nc2ncnc3oc(C)c(C)c23)s1
a: 160

* * *

Rule: 1 for MDR1-MDCK efflux ratio not less than 3, -1 for anything less.

q: Is it the case that CC(C)n1cnnc1-c1cccc(N2Cc3ccc(Br)cc3C2=O)n1 has MDR1-MDCK efflux ratio reaching or exceeding 3?
a: -1

q: Is it the case that NCCOc1cccc(CC(=O)N2CCCN(C(=O)C3CCC3)CC2)c1 has MDR1-MDCK efflux ratio reaching or exceeding 3?
a: 1

q: Is it the case that CC(C)(C)Nc1cc(NCC2CCOCC2)c2ncc(-c3ccc(C(=O)NC4CC4)cc3)n2n1 has MDR1-MDCK efflux ratio reaching or exceeding 3?
a: 1

q: Is it the case that Cc1noc(C(C)C)c1C(=O)N1CC(C)OC(c2ccccc2)C1 (stereo unspecified) has MDR1-MDCK efflux ratio reaching or exceeding 3?
a: -1

q: Is it the case that CC1(C)CCN(C(=O)NCCOc2cccnc2)C1 has MDR1-MDCK efflux ratio reaching or exceeding 3?
a: 1

q: Is it the case that Cc1nn(CCNS(=O)(=O)N2CCOCC2)c(C)c1C has MDR1-MDCK efflux ratio reaching or exceeding 3?
a: 1

q: Is it the case that Cc1ccc(CN(C)C(=O)c2cn(Cc3ccccc3F)nn2)cc1 has MDR1-MDCK efflux ratio reaching or exceeding 3?
a: -1

q: Is it the case that O=C(CCCc1cc(Cl)sc1Cl)N1CC[C@H](O)C1 has MDR1-MDCK efflux ratio reaching or exceeding 3?
a: -1

q: Is it the case that CN1C(=O)[C@H]2CN(CC3=CC[C@H]4C[C@@H]3C4(C)C)C[C@H]2C1=O has MDR1-MDCK efflux ratio reaching or exceeding 3?
a: -1

q: Is it the case that CC(C)[C@H](Nc1ncc(Cl)cn1)C(=O)N1CCCC1 has MDR1-MDCK efflux ratio reaching or exceeding 3?
a: -1

q: Is it the case that Cc1ccc2[nH]c(C3CN(C(=O)Cc4cccc5ccccc45)C3)nc2c1 has MDR1-MDCK efflux ratio reaching or exceeding 3?
a: 1
